Here, each record is paired with measured viability, T/C data.
# System: 192522-019-R-J2-PDC complex tumor spheroid viability
# Assay: Anticancer human tumor 192522-019-R-J2-PDC patient-derived colon adenocarcinoma cell line growth inhibition [POLQ]
# Measurement conditions: second compound 10 µM; first compound 0.01 µM; stronger effect = lower value
Readout kind: viability, T/C

>  <Molecule>
Cn1ncnc1[C@H]1c2n[nH]c(=O)c3cc(F)cc(c23)N[C@@H]1c1ccc(F)cc1 + Cc1cccc(N(C)C(=O)C2C(O)CCN2c2nc(C)cc(C(F)(F)F)c2C#N)c1

>  <Subject of test>
192522-019-R-J2-PDC complex tumor spheroid viability

>  <Reported result>
102%

$$$$
>  <Molecule>
COc1cccc(OCCCN)c1-c1cc(Nc2cnc(C#N)cn2)n[nH]1 + Nc1ccc(C#CCN(C(=O)Cc2ncc(C(F)(F)F)cc2C(F)(F)F)c2ccc(F)cc2)nn1

>  <Subject of test>
192522-019-R-J2-PDC complex tumor spheroid viability

>  <Reported result>
66.7%

$$$$
>  <Molecule>
CC[C@@]1(O)C(=O)OCc2c1cc1n(c2=O)Cc2cc3c(CN(C)C)c(O)ccc3nc2-1 + Nc1ccc(C#CCN(C(=O)Cc2ncc(C(F)(F)F)cc2C(F)(F)F)c2ccc(F)cc2)nn1

>  <Subject of test>
192522-019-R-J2-PDC complex tumor spheroid viability

>  <Reported result>
95.1%

$$$$
>  <Molecule>
Cn1ncnc1[C@H]1c2n[nH]c(=O)c3cc(F)cc(c23)N[C@@H]1c1ccc(F)cc1 + COC1C(OC(N)=O)C(O)C(Oc2ccc3c(O)c(NC(=O)c4ccc(O)c(CC=C(C)C)c4)c(=O)oc3c2C)OC1(C)C

>  <Subject of test>
192522-019-R-J2-PDC complex tumor spheroid viability

>  <Reported result>
102%

$$$$
>  <Molecule>
C=CCn1c(=O)c2cnc(Nc3ccc(N4CCN(C)CC4)cc3)nc2n1-c1cccc(C(C)(C)O)n1 + Cc1cccc(N(C)C(=O)C2C(O)CCN2c2nc(C)cc(C(F)(F)F)c2C#N)c1

>  <Subject of test>
192522-019-R-J2-PDC complex tumor spheroid viability

>  <Reported result>
115%

$$$$
>  <Molecule>
CCc1c2c(nc3ccc(O)cc13)-c1cc3c(c(=O)n1C2)COC(=O)[C@]3(O)CC + COC1C(OC(N)=O)C(O)C(Oc2ccc3c(O)c(NC(=O)c4ccc(O)c(CC=C(C)C)c4)c(=O)oc3c2C)OC1(C)C

>  <Subject of test>
192522-019-R-J2-PDC complex tumor spheroid viability

>  <Reported result>
54.6%

$$$$
>  <Molecule>
Cn1ncnc1[C@H]1c2n[nH]c(=O)c3cc(F)cc(c23)N[C@@H]1c1ccc(F)cc1 + Nc1ccc(C#CCN(C(=O)Cc2ncc(C(F)(F)F)cc2C(F)(F)F)c2ccc(F)cc2)nn1

>  <Subject of test>
192522-019-R-J2-PDC complex tumor spheroid viability

>  <Reported result>
99.2%

$$$$
>  <Molecule>
C=CCn1c(=O)c2cnc(Nc3ccc(N4CCN(C)CC4)cc3)nc2n1-c1cccc(C(C)(C)O)n1 + COC1C(OC(N)=O)C(O)C(Oc2ccc3c(O)c(NC(=O)c4ccc(O)c(CC=C(C)C)c4)c(=O)oc3c2C)OC1(C)C

>  <Subject of test>
192522-019-R-J2-PDC complex tumor spheroid viability

>  <Reported result>
97.3%

$$$$
>  <Molecule>
CC[C@@]1(O)C(=O)OCc2c1cc1n(c2=O)Cc2cc3c(CN(C)C)c(O)ccc3nc2-1 + COC1C(OC(N)=O)C(O)C(Oc2ccc3c(O)c(NC(=O)c4ccc(O)c(CC=C(C)C)c4)c(=O)oc3c2C)OC1(C)C

>  <Subject of test>
192522-019-R-J2-PDC complex tumor spheroid viability

>  <Reported result>
103%

$$$$
>  <Molecule>
COc1cccc(OCCCN)c1-c1cc(Nc2cnc(C#N)cn2)n[nH]1 + COC1C(OC(N)=O)C(O)C(Oc2ccc3c(O)c(NC(=O)c4ccc(O)c(CC=C(C)C)c4)c(=O)oc3c2C)OC1(C)C

>  <Subject of test>
192522-019-R-J2-PDC complex tumor spheroid viability

>  <Reported result>
64.6%

$$$$
>  <Molecule>
CCc1c2c(nc3ccc(O)cc13)-c1cc3c(c(=O)n1C2)COC(=O)[C@]3(O)CC + Cc1cccc(N(C)C(=O)C2C(O)CCN2c2nc(C)cc(C(F)(F)F)c2C#N)c1

>  <Subject of test>
192522-019-R-J2-PDC complex tumor spheroid viability

>  <Reported result>
69.4%

$$$$
>  <Molecule>
CC[C@@]1(O)C(=O)OCc2c1cc1n(c2=O)Cc2cc3c(CN(C)C)c(O)ccc3nc2-1 + Cc1cccc(N(C)C(=O)C2C(O)CCN2c2nc(C)cc(C(F)(F)F)c2C#N)c1

>  <Subject of test>
192522-019-R-J2-PDC complex tumor spheroid viability;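 note: spheroids exposed to drugs for seven days before reading; 100% = DMSO vehicle control viability in luminescence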

>  <Reported result>
102%

$$$$
>  <Molecule>
C=CCn1c(=O)c2cnc(Nc3ccc(N4CCN(C)CC4)cc3)nc2n1-c1cccc(C(C)(C)O)n1 + Nc1ccc(C#CCN(C(=O)Cc2ncc(C(F)(F)F)cc2C(F)(F)F)c2ccc(F)cc2)nn1

>  <Subject of test>
192522-019-R-J2-PDC complex tumor spheroid viability;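 note: spheroids exposed to drugs for seven days before reading; 100% = DMSO vehicle control viability in luminescence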

>  <Reported result>
113%

$$$$
>  <Molecule>
CCc1c2c(nc3ccc(O)cc13)-c1cc3c(c(=O)n1C2)COC(=O)[C@]3(O)CC + Nc1ccc(C#CCN(C(=O)Cc2ncc(C(F)(F)F)cc2C(F)(F)F)c2ccc(F)cc2)nn1

>  <Subject of test>
192522-019-R-J2-PDC complex tumor spheroid viability;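 note: spheroids exposed to drugs for seven days before reading; 100% = DMSO vehicle control viability in luminescence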

>  <Reported result>
76.7%

$$$$
>  <Molecule>
COc1cccc(OCCCN)c1-c1cc(Nc2cnc(C#N)cn2)n[nH]1 + Cc1cccc(N(C)C(=O)C2C(O)CCN2c2nc(C)cc(C(F)(F)F)c2C#N)c1

>  <Subject of test>
192522-019-R-J2-PDC complex tumor spheroid viability;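 note: spheroids exposed to drugs for seven days before reading; 100% = DMSO vehicle control viability in luminescence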

>  <Reported result>
89.4%

$$$$
